Experiment: Apparent permeability from basolateral to apical side in MDCK2-MDR1 cells by UV-Visible spectrophotometric method
Type: ADME, cell-based, Canis lupus familiaris
Details: dog, MDCK-MDR1
The reader will find reported Papp B→A values listed item by item below.
# output: bare number, implied unit ×10⁻⁶ cm/s

- smiles: "Cc1c(C)c2ccc(OCC3CCN(CCCO[N+](=O)[O-])CC3)cc2oc1=O"
  unitOfMeasurement: "×10⁻⁶ cm/s"
  measured: 15.7

Q: Look up Papp B→A for this compound: `Cc1c(C)c2ccc(OCC3CCN(Cc4cccc(CO[N+](=O)[O-])c4)CC3)cc2oc1=O`
A: 16.5

Q: Queued: `Cc1c(C)c2ccc(OCC3CCN(CCCO)CC3)cc2oc1=O`
A: 14.9

Q: // same read-out, input: `Cc1c(C)c2ccc(OCC3CCN(Cc4cccc(CO)c4)CC3)cc2oc1=O`
A: 21.5
